- experimental-system: T1, HLA-DR1 molecule (DRB1*0101) (human)
- T1 chain 1: not shown
- T1 chain 2: not shown
- method-summary: competition ELISA vs biotin-HA 306-318
property-measured: pIC50
// scale note: pIC50 = -log10(conc_M); give the bare number

Field: example entries. Status: answers known.
binder: SLYGTTLEQQYNKPL (modifications not checked) [E6 89-103]
pIC50: 6.90
//
binder: LDLQPETTDLYCYEQ (modifications not checked) [E7 13-27]
pIC50: 5.40

# ---- query binder ----
The binder listed as TELQTTIHDIILECV (modifications not checked) [E6 24-38] shows pIC50 equal to 6.37
